Target: IGF2 (Homo sapiens, UniProt P01344)
Sequence (P01344 25-91): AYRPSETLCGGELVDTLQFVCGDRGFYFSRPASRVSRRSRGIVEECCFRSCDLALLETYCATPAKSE
Assay: SPR (Biacore T200) of recombinant IGF2R domain 11 mutants on immobilised biotinylated IGF2
Assay type: binding
Design: purchased GroPep
Conditions: Table 3; 25° C., HBS-EP pH 7.4
Experimental: Surface plasmon resonance (SPR) binding analysis of recombinant M6P/IGF2R domain 11 mutants interaction with IGF2. Kon indicates association (on) rate; koff, dissociation (off) rate; RU, response units. Binding to IGF2 assessed with BIAcore T200 using purified biotinylated IGF2 and IGF1 on a streptavidin biosensor chip. […] All experiments were carried out at 25° C. in HBS-EP buffer (pH 7.4), were repeated 2-5 times on two independent BIAcore chips. nd=not determined. […]
measurementKind: Kinetics koff (s⁻¹)
Numbers only, in s⁻¹.

input: # return recorded Kinetics koff for entry AB3 Q1569R P1597K S1602H: domain 11 AB3 + Q1569R, P1597K, S1602H (protein) MKSNEHDDCQVTNPSTGHLFDLSSLSGRAGFTAAYSKSGVVYMSICGENENCPPGVGACFGRTRISVGKANKRLRYVDQVLQLVYKDGSKCPSKHGLSYKSVISFVCRPEAGPTNRPMLISLDKQTCTLFFSWHTPLACEQATECSV
output: 0.016
